biological target: TRKA (Homo sapiens (Human), UniProt P04629); test: Cell based DiscoveRx PathHunter antagonist assay, TRKA cell line; conditions: read-out: TrkA cell potency
Sequence (P04629 33-796): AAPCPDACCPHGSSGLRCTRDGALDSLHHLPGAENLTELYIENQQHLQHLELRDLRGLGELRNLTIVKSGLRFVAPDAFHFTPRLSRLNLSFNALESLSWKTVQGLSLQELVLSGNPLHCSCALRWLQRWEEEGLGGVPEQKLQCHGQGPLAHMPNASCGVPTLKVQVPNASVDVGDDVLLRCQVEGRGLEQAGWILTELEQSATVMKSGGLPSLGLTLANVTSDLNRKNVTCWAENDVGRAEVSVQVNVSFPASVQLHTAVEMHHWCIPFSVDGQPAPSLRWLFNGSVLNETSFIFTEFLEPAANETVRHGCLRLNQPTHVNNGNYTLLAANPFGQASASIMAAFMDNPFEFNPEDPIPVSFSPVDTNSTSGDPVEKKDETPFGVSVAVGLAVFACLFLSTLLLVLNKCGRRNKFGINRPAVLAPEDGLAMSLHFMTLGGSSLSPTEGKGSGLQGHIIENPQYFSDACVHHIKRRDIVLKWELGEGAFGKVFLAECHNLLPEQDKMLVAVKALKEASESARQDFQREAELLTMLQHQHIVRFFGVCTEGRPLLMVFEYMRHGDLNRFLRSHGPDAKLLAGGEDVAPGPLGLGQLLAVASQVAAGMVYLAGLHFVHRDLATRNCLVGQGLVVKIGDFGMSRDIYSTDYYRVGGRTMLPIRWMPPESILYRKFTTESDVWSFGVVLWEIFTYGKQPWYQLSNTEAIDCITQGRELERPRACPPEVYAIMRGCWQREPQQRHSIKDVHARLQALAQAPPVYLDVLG
observation type: pIC50
Please report pIC50 as the negative decimal logarithm of the molar concentration, giving only the number.

// query Item under review: CC(CO)n1cc(C(=O)c2cncc(NC(=O)Cc3ccc(Cl)cn3)c2)c2cnc(N)nc21 (single isomer, unassigned) [Example 35] . Reported pIC50?
// result 6.99

// query Ok, now `C[C@H](CO)n1cc(C(=O)c2cncc(NC(=O)Cc3ccc(Cl)cc3)c2)c2cncnc21`
// result 7.43

// query Ok, now `C[C@@H](CO)n1cc(C(=O)c2cncc(NC(=O)Cc3ccc(Cl)cc3)c2)c2cncnc21`
// result 7.77

// query Ok, now `C[C@H](CO)n1cc(C(=O)c2cncc(NC(=O)Cn3cc(C(F)(F)F)nn3)c2)c2cncnc21`
// result 5.24

----------
target: TRKA (Homo sapiens (Human), UniProt P04629); assay: Isolated TRK enzyme assay (HTRF KinEASE-TK), TRKA; type: biochemical; conditions: read-out: Trka enzyme (IC50)
Sequence (P04629 441-796): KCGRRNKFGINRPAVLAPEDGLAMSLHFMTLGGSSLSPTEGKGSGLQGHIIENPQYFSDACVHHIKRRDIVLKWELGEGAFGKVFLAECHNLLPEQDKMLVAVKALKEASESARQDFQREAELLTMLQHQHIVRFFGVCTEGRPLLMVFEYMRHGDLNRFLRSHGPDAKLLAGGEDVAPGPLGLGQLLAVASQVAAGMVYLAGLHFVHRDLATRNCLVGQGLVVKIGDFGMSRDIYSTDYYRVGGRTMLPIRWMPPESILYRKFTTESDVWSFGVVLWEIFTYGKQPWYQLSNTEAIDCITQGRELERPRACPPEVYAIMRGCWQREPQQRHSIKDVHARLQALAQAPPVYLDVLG
# Lookup of reported log10 IC50 keyed by entry
Use the decimal logarithm of IC50 (nM).

Example results:
compound: COc1ccc2[nH]c(C(=O)Nc3cncc(C(=O)c4cn(C(C)C)c5ncncc45)c3)nc2c1
log10 IC50: 1.56
//
compound: CC(CO)(CO)n1cc(C(=O)c2cncc(NC(=O)Cc3ccc4cccnc4c3)c2)c2cncnc21
log10 IC50: 1.98
//
compound: CC(C)n1cc(C(=O)c2cncc(NC(=O)c3ccc(C4(C(F)(F)F)N=N4)cc3)c2)c2cncnc21
log10 IC50: 3.51
//
compound: CC(C)n1cc(C(=O)c2cncc(NC(=O)c3cnn4c3CCC4)c2)c2cncnc21
log10 IC50: 2.88

// query Item under review: `CC1(n2cc(C(=O)c3cncc(NC(=O)Cn4cc(C(F)(F)F)nn4)c3)c3cncnc32)COC1` . Reported log10 IC50?
// result 2.22

// query Ok, now `CC(C)n1cc(C(=O)c2cncc(NC(=O)c3csc(C4CCC4)n3)c2)c2cncnc21`
// result 0.61

// query Ok, now `CC(C)n1cc(C(=O)c2cncc(NC(=O)Cn3nc4ccccc4n3)c2)c2cncnc21`
// result 0.88

----------
molecular target: TRKA (Homo sapiens (Human), UniProt P04629); assay: Isolated TRK enzyme assay (HTRF KinEASE-TK), TRKA; assay type: biochemical; settings: read-out: Trka enzyme (IC50)
# Lookup of reported pIC50 keyed by entry
Please report pIC50 as the negative decimal logarithm of the molar concentration, giving only the number.

molecule smiles: CC(C)n1cc(C(=O)c2cncc(NC(=O)Cc3cccc(CN4CC(F)C4)c3)c2)c2cncnc21
experimental system: TRKA (Homo sapiens (Human), UniProt P04629)
measured number: 5.67

molecule smiles: O=C(CN1Cc2ccccc2C1=O)Nc1cncc(C(=O)c2cn(C3COC3)c3ncncc23)c1
experimental system: TRKA (Homo sapiens (Human), UniProt P04629)
measured number: 5.51

molecule smiles: CN(C(=O)Cc1ccc(Cl)cc1)c1cncc(C(=O)c2cn(C(C)(C)C)c3ncncc23)c1
experimental system: TRKA (Homo sapiens (Human), UniProt P04629)
measured number: 7.50

molecule smiles: CC(C)n1cc(C(=O)c2cncc(NC(=O)Cc3ccc4ocnc4c3)c2)c2cncnc21
experimental system: TRKA (Homo sapiens (Human), UniProt P04629)
measured number: 7.66

// query Item under review: `CC(C)n1cc(C(=O)c2cncc(NC(=O)Cc3cccnc3)c2)c2cncnc21` . Reported pIC50?
// result 5.59

----------
target: TRKA (Homo sapiens (Human), UniProt P04629); assay: Isolated TRK enzyme assay (HTRF KinEASE-TK), TRKA; format: biochemical; details: read-out: Trka enzyme (IC50)
# Lookup of reported log10 of IC50 keyed by entry
Use the decimal logarithm of IC50 (nM).

Example results:
molecule smiles: Cn1cc(C(=O)c2cncc(NC(=O)CCc3ccccc3)c2)c2cncnc21
log10 of IC50: 3.99

molecule smiles: CC(C)(CO)n1cc(C(=O)c2cncc(NC(=O)Cc3nc4ccccc4[nH]3)c2)c2cnc(N)nc21
log10 of IC50: 0.75

molecule smiles: CC(C)(C)n1cc(C(=O)c2cncc(NC(=O)Cc3ccc(C#N)cc3)c2)c2cnc(N)nc21
log10 of IC50: 0.66

molecule smiles: CC(C)n1cc(C(=O)c2cncc(NC(=O)c3cnn(CCC#N)c3)c2)c2cncnc21
log10 of IC50: 2.73

molecule smiles: N#Cc1ccc(CC(=O)Nc2cncc(C(=O)c3cn(C4COC4)c4ncncc34)c2)cc1
log10 of IC50: 3.08

// query Item under review: `O=C(Cc1ccc(C(F)(F)F)cc1)Nc1cncc(C(=O)c2cn(C3(CO)CC3)c3ncncc23)c1` . Reported log10 of IC50?
// result 0.66

// query Ok, now `CC(C)n1cc(C(=O)c2cncc(NC(=O)c3cnn4cccnc34)c2)c2cncnc21`
// result 3.65

// query Ok, now `COc1ccc2ncc(C(=O)Nc3cncc(C(=O)c4cn(C(C)C)c5ncncc45)c3)cc2c1`
// result 2.19

----------
# Lookup of reported IC50 keyed by entry
biological target: TRKA (Homo sapiens (Human)); experiment: Isolated TRK enzyme assay (HTRF KinEASE-TK), TRKA; type: biochemical; conditions: read-out: Trka enzyme (IC50)
Lab book: enter the figure in nM, no units written.

Example results:
molecule smiles: CC(C)(CO)n1cc(C(=O)c2cncc(NC(=O)Cc3ncc(F)cc3F)c2)c2cnc(N)nc21
IC50 (nM): 150
//
molecule smiles: CC(C)n1cc(C(=O)c2cncc(NC(=O)c3ccc4cc[nH]c4n3)c2)c2cncnc21
IC50 (nM): 40.2
//
molecule smiles: CC(C)n1cc(C(=O)c2cncc(NC(=O)c3cn(C)c4cnccc34)c2)c2cncnc21
IC50 (nM): 674
//
molecule smiles: CC(C)n1cc(C(=O)c2cncc(NC(=O)[C@H](N)Cc3ccc(C(=O)c4ccccc4)cc3)c2)c2cncnc21
IC50 (nM): 7820
//
molecule smiles: CC(C)n1ncc(CC(=O)Nc2cncc(C(=O)c3cn(C(C)C)c4nc(N)ncc34)c2)c1C(F)(F)F
IC50 (nM): 33.1
//
molecule smiles: CC(C)n1cc(C(=O)c2cncc(NC(=O)Cn3cnc(Cl)c3Cl)c2)c2cncnc21
IC50 (nM): 302

Kindly consider the entry below.
// query Item under review: `CC(C)n1cc(C(=O)c2cncc(NC(=O)Cc3cn(Cc4ccccc4)nn3)c2)c2cncnc21` . Reported IC50?
// result 573

----------
biological target: TRKA (Homo sapiens (Human), UniProt P04629); assay: Isolated TRK enzyme assay (HTRF KinEASE-TK), TRKA; assay type: biochemical; details: isolated TRKA enzyme; read-out: TrkA enzyme potency
# Lookup of reported IC50 keyed by entry
Lab book: enter the figure in nM, no units written.

Example results:
compound: CC(CO)n1cc(C(=O)c2cncc(NC(=O)Cn3ccc(C(F)(F)F)n3)c2)c2cnc(N)nc21 (single isomer, unassigned) [Example 44]
experimental system: TRKA (Homo sapiens (Human), UniProt P04629)
endpoint unit: nM
IC50: 12
--
compound: CC(C)(CO)n1cc(C(=O)c2cncc(NC(=O)Cc3ccc(C(F)(F)F)cc3)c2)c2cncnc21 [Example 27]
experimental system: TRKA (Homo sapiens (Human), UniProt P04629)
endpoint unit: nM
IC50: 2.8
--
compound: CC(C)(C)n1cc(C(=O)c2cncc(NC(=O)Cn3cc(C(F)(F)F)nn3)c2)c2cncnc21 [Example 2]
experimental system: TRKA (Homo sapiens (Human), UniProt P04629)
endpoint unit: nM
IC50: 8.4
--
compound: C[C@H](CO)n1cc(C(=O)c2cncc(NC(=O)Cc3ccc(Cl)cn3)c2)c2cncnc21 [Example 23]
experimental system: TRKA (Homo sapiens (Human), UniProt P04629)
endpoint unit: nM
IC50: 26
--
compound: CC(C)(CO)n1cc(C(=O)c2cncc(NC(=O)Cn3cc(C4CC4)nn3)c2)c2cncnc21 [Example 31]
experimental system: TRKA (Homo sapiens (Human), UniProt P04629)
endpoint unit: nM
IC50: 18
--
compound: CC(CO)n1cc(C(=O)c2cncc(NC(=O)Cn3cc(C4CC4)cn3)c2)c2cncnc21 (stereo not shown) [Example 25]
experimental system: TRKA (Homo sapiens (Human), UniProt P04629)
endpoint unit: nM
IC50: 24

// query Item under review: CC(C)(C)n1cc(C(=O)c2cncc(NC(=O)Cn3cc(C4CC4)nn3)c2)c2cncnc21 [Example 4] . Reported IC50?
// result 3.9

// query Ok, now CC(C)(CO)n1cc(C(=O)c2cncc(NC(=O)Cn3ccc(C(F)(F)F)n3)c2)c2cnc(N)nc21 [Example 52]
// result 3.1

// query Ok, now CC(CO)n1cc(C(=O)c2cncc(NC(=O)Cc3ccc(Cl)cn3)c2)c2cnc(N)nc21 (single isomer, unassigned) [Example 41]
// result 7.6

// query Ok, now Cc1cc(C(F)(F)F)nn1CC(=O)Nc1cncc(C(=O)c2cn(C(C)(C)CO)c3nc(N)ncc23)c1 [Example 47]
// result 25
